Target: rat somatostatin receptor subtype 2 (SSTR2) (Rattus norvegicus, UniProt P30680)
Construct: expressed in transfected cells; host or cells: Saccharomyces cerevisiae LY364 bearing pJH2 (SSTR2) and pLP82 (G protein)
Test: Yeast assay, somatostatin antagonist activity (zone of no growth in presence of S-14)
Format: cell-based
Conditions: rating on a scale of 1-5 from zone of no growth; 5 μL of 1 mg/mL S-14 added to each plate
Positions of bridges follow the written chain, without caps; N, C: chain ends. Non-standard residues stand in square brackets, D forms with d. Residues, ends and D or L forms follow the SMILES beside them. Phe(4-NO2) = N[C@@H](Cc1ccc([N+](=O)[O-])cc1)C(=O)O; Abu = CC[C@H](N)C(=O)O
reported-metric: Yeast Assay Antagonist
Reply with the value as a number alone.

Identify measured Yeast Assay Antagonist obtained with rat somatostatin receptor subtype 2 (SSTR2) (Rattus norvegicus, UniProt P30680) for C[C@@H](O)[C@@H]1NC(=O)[C@H](CCCCN)NC(=O)[C@@H](Cc2c[nH]c3ccccc23)NC(=O)[C@H](Cc2ccc(O)cc2)NC(=O)[C@H](NC(=O)[C@@H](N)Cc2ccc([N+](=O)[O-])cc2)CSSC[C@@H](C(=O)N[C@H](Cc2ccc(O)cc2)C(N)=O)NC1=O .
4

Identify measured Yeast Assay Antagonist obtained with rat somatostatin receptor subtype 2 (SSTR2) (Rattus norvegicus, UniProt P30680) for CC[C@@H]1NC(=O)[C@H](CCCCN)NC(=O)[C@@H](Cc2c[nH]c3ccccc23)NC(=O)[C@H](Cc2ccc(O)cc2)NC(=O)[C@H](NC(=O)[C@@H](N)Cc2ccc([N+](=O)[O-])cc2)CSSC[C@@H](C(=O)N[C@@H](Cc2ccc(O)cc2)C(N)=O)NC1=O [4-NO2 Phe Tyr Lys Abu Tyr] (H-[Phe(4-NO2)][dC]Y[dW]K[Abu]CY-NH2; disulfide 2-7) .
3

Identify measured Yeast Assay Antagonist obtained with rat somatostatin receptor subtype 2 (SSTR2) (Rattus norvegicus, UniProt P30680) for C[C@@H](O)[C@@H]1NC(=O)[C@H](CCCCN)NC(=O)[C@@H](Cc2c[nH]c3ccccc23)NC(=O)[C@H](Cc2ccc(O)cc2)NC(=O)[C@H](NC(=O)[C@@H](N)Cc2ccc([N+](=O)[O-])cc2)CSSC[C@@H](C(=O)N[C@@H](Cc2ccc(O)cc2)C(N)=O)NC1=O .
5

Identify measured Yeast Assay Antagonist obtained with rat somatostatin receptor subtype 2 (SSTR2) (Rattus norvegicus, UniProt P30680) for CC(C)[C@@H]1NC(=O)[C@H](CCCCN)NC(=O)[C@@H](Cc2c[nH]c3ccccc23)NC(=O)[C@H](Cc2ccc(O)cc2)NC(=O)[C@H](NC(=O)[C@@H](N)Cc2ccc([N+](=O)[O-])cc2)CSSC[C@@H](C(=O)N[C@@H](Cc2ccc(O)cc2)C(N)=O)NC1=O [4-NO2 Phe Tyr Lys Val Tyr] (H-[Phe(4-NO2)][dC]Y[dW]KVCY-NH2; disulfide 2-7 (inferred); N-terminus and C-terminus assumed) .
5

Identify measured Yeast Assay Antagonist obtained with rat somatostatin receptor subtype 2 (SSTR2) (Rattus norvegicus, UniProt P30680) for CC(=O)N[C@@H](Cc1ccc(I)cc1)C(=O)N[C@@H]1CSSC[C@@H](C(=O)N[C@H](Cc2ccc(O)cc2)C(N)=O)NC(=O)[C@H]([C@@H](C)O)NC(=O)[C@H](CCCCN)NC(=O)[C@@H](Cc2c[nH]c3ccccc23)NC(=O)[C@H](Cc2ccc(O)cc2)NC1=O .
4

====

Positions of bridges follow the written chain, without caps; N, C: chain ends. Non-standard residues stand in square brackets, D forms with d. Residues, ends and D or L forms follow the SMILES beside them. Phe(4-NO2) = N[C@@H](Cc1ccc([N+](=O)[O-])cc1)C(=O)O; 2Nal = N[C@@H](Cc1ccc2ccccc2c1)C(=O)O
I'd appreciate it if you could supply IC50 values for the items below.
Hi! Could you send only the number? It should be in nM, unit omitted.

Identify measured IC50 obtained with SSTR2 (Rattus norvegicus) for C[C@@H](O)[C@@H]1NC(=O)[C@H](CCCCN)NC(=O)[C@@H](Cc2c[nH]c3ccccc23)NC(=O)[C@H](Cc2ccc(O)cc2)NC(=O)[C@H](NC(=O)[C@@H](N)Cc2ccc([N+](=O)[O-])cc2)CSSC[C@@H](C(=O)N[C@H](Cc2ccc(O)cc2)C(N)=O)NC1=O .
3

Identify measured IC50 obtained with SSTR2 (Rattus norvegicus) for CC(C)[C@@H]1NC(=O)[C@H](CCCCN)NC(=O)[C@@H](Cc2c[nH]c3ccccc23)NC(=O)[C@H](Cc2ccc(O)cc2)NC(=O)[C@H](NC(=O)[C@@H](N)Cc2ccc([N+](=O)[O-])cc2)CSSC[C@@H](C(=O)N[C@@H](Cc2ccc(O)cc2)C(N)=O)NC1=O [4-NO2 Phe Tyr Lys Val Tyr] (H-[Phe(4-NO2)][dC]Y[dW]KVCY-NH2; disulfide 2-7 (inferred); N-terminus and C-terminus assumed) .
29

Identify measured IC50 obtained with SSTR2 (Rattus norvegicus) for C[C@@H](O)[C@@H]1NC(=O)[C@H](CCCCN)NC(=O)[C@@H](Cc2c[nH]c3ccccc23)NC(=O)[C@H](Cc2ccc(O)cc2)NC(=O)[C@H](NC(=O)[C@@H](N)Cc2ccc3ccccc3c2)CSSC[C@@H](C(=O)N[C@@H](Cc2ccc(O)cc2)C(N)=O)NC1=O [L-Nal(2) Tyr Lys Thr Tyr] (H-[2Nal][dC]Y[dW]KTCY-NH2; disulfide 2-7 (inferred); N-terminus and C-terminus assumed) .
0.9

====

I'd appreciate it if you could supply Yeast Assay Antagonist values for the items below.
Molecular target: rat somatostatin receptor subtype 2 (SSTR2) (Rattus norvegicus, UniProt P30680)
Construct: expressed in transfected cells; host or cells: Saccharomyces cerevisiae LY364 bearing pJH2 (SSTR2) and pLP82 (G protein)
Assay: Yeast assay, somatostatin antagonist activity (zone of no growth in presence of S-14)
Type: cell-based
Set-up: key: 1 is minimum antagonist activity; 5 is maximum antagonist activity; --: When no activity is observed, the result is indicated by a dash
Settings: rating on a scale of 1-5 from zone of no growth; 5 μL of 1 mg/mL S-14 added to each plate
Positions of bridges follow the written chain, without caps; N, C: chain ends. Non-standard residues stand in square brackets, D forms with d. Residues, ends and D or L forms follow the SMILES beside them. NMePhe(4-NO2) = CN[C@@H](Cc1ccc([N+](=O)[O-])cc1)C(=O)O; Phe(4-NO2) = N[C@@H](Cc1ccc([N+](=O)[O-])cc1)C(=O)O; 2Nal = N[C@@H](Cc1ccc2ccccc2c1)C(=O)O

Supply measured Yeast Assay Antagonist of CN[C@@H](Cc1ccc([N+](=O)[O-])cc1)C(=O)N[C@@H]1CSSC[C@@H](C(=O)N[C@@H](Cc2ccc(O)cc2)C(N)=O)NC(=O)[C@H](C(C)C)NC(=O)[C@H](CCCCN)NC(=O)[C@@H](Cc2c[nH]c3ccccc23)NC(=O)[C@H](Cc2ccc(O)cc2)NC1=O [NMe-4-NO2 Phe Tyr Lys Val Tyr] (H-[NMePhe(4-NO2)][dC]Y[dW]KVCY-NH2; disulfide 2-7 (inferred); N-terminus and C-terminus assumed) in your reply.
5

Supply measured Yeast Assay Antagonist of NCCCC[C@@H]1NC(=O)[C@@H](Cc2c[nH]c3ccccc23)NC(=O)[C@H](Cc2ccc(O)cc2)NC(=O)[C@H](NC(=O)[C@@H](N)Cc2ccc([N+](=O)[O-])cc2)CSSC[C@@H](C(=O)N[C@@H](Cc2ccc3ccccc3c2)C(N)=O)NC(=O)[C@H](CO)NC1=O [4-NO2 Phe Tyr Lys Ser Nal(2)] (H-[Phe(4-NO2)][dC]Y[dW]KSC[2Nal]-NH2; disulfide 2-7 (inferred); N-terminus and C-terminus assumed) in your reply.
3

Supply measured Yeast Assay Antagonist of CC(=O)N[C@@H](Cc1ccc([N+](=O)[O-])cc1)C(=O)N[C@@H]1CSSC[C@@H](C(=O)N[C@H](Cc2ccc(O)cc2)C(N)=O)NC(=O)[C@H]([C@@H](C)O)NC(=O)[C@H](CCCCN)NC(=O)[C@@H](Cc2c[nH]c3ccccc23)NC(=O)[C@H](Cc2ccc(O)cc2)NC1=O in your reply.
4

====

Biological target: SSTR2 (Rattus norvegicus, UniProt P30680)
Sequence (P30680 whole entry): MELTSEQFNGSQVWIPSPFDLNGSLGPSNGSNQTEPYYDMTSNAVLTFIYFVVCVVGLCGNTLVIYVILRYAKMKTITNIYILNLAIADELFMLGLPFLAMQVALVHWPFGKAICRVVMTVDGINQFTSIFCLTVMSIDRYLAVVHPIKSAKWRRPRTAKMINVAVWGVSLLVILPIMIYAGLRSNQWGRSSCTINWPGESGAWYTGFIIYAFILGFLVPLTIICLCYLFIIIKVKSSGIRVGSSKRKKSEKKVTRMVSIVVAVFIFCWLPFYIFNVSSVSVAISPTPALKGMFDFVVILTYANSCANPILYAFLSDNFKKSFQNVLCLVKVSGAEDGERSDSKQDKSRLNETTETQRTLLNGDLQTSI
Positions of bridges follow the written chain, without caps; N, C: chain ends. Non-standard residues stand in square brackets, D forms with d. Residues, ends and D or L forms follow the SMILES beside them. NMePhe(4-NO2) = CN[C@@H](Cc1ccc([N+](=O)[O-])cc1)C(=O)O; Phe(4-NO2) = N[C@@H](Cc1ccc([N+](=O)[O-])cc1)C(=O)O; 2Nal = N[C@@H](Cc1ccc2ccccc2c1)C(=O)O; Abu = CC[C@H](N)C(=O)O
Friendly reminder: Ki below 3 nM is 1.0, at or above is 0.0.

State whether 3 nM exceeds Ki recorded for CC(C)[C@@H]1NC(=O)[C@H](CCCCN)NC(=O)[C@@H](Cc2c[nH]c3ccccc23)NC(=O)[C@H](Cc2ccc(O)cc2)NC(=O)[C@H](NC(=O)[C@@H](N)Cc2ccc([N+](=O)[O-])cc2)CSSC[C@@H](C(=O)N[C@@H](Cc2ccc3ccccc3c2)C(N)=O)NC1=O [4-NO2 Phe Tyr Lys Val Nal(2)] (H-[Phe(4-NO2)][dC]Y[dW]KVC[2Nal]-NH2; disulfide 2-7 (inferred); N-terminus and C-terminus assumed) .
0.0

State whether 3 nM exceeds Ki recorded for CN[C@@H](Cc1ccc([N+](=O)[O-])cc1)C(=O)N[C@@H]1CSSC[C@@H](C(=O)N[C@@H](Cc2ccc(O)cc2)C(N)=O)NC(=O)[C@H](C(C)C)NC(=O)[C@H](CCCCN)NC(=O)[C@@H](Cc2c[nH]c3ccccc23)NC(=O)[C@H](Cc2ccc(O)cc2)NC1=O [NMe-4-NO2 Phe Tyr Lys Val Tyr] (H-[NMePhe(4-NO2)][dC]Y[dW]KVCY-NH2; disulfide 2-7 (inferred); N-terminus and C-terminus assumed) .
1.0

State whether 3 nM exceeds Ki recorded for CC(C)[C@@H]1NC(=O)[C@H](CCCCN)NC(=O)[C@@H](Cc2c[nH]c3ccccc23)NC(=O)[C@H](Cc2ccc(O)cc2)NC(=O)[C@H](NC(=O)[C@@H](N)Cc2ccc([N+](=O)[O-])cc2)CSSC[C@@H](C(=O)N[C@@H](Cc2ccc(O)cc2)C(N)=O)NC1=O [4-NO2 Phe Tyr Lys Val Tyr] (H-[Phe(4-NO2)][dC]Y[dW]KVCY-NH2; disulfide 2-7 (inferred); N-terminus and C-terminus assumed) .
0.0

State whether 3 nM exceeds Ki recorded for CC[C@@H]1NC(=O)[C@H](CCCCN)NC(=O)[C@@H](Cc2c[nH]c3ccccc23)NC(=O)[C@H](Cc2ccc(O)cc2)NC(=O)[C@H](NC(=O)[C@@H](N)Cc2ccc([N+](=O)[O-])cc2)CSSC[C@@H](C(=O)N[C@@H](Cc2ccc(O)cc2)C(N)=O)NC1=O [4-NO2 Phe Tyr Lys Abu Tyr] (H-[Phe(4-NO2)][dC]Y[dW]K[Abu]CY-NH2; disulfide 2-7) .
1.0

State whether 3 nM exceeds Ki recorded for C[C@@H](O)[C@@H]1NC(=O)[C@H](CCCCN)NC(=O)[C@@H](Cc2c[nH]c3ccccc23)NC(=O)[C@H](Cc2ccc(O)cc2)NC(=O)[C@H](NC(=O)[C@@H](N)Cc2ccc([N+](=O)[O-])cc2)CSSC[C@@H](C(=O)N[C@H](Cc2ccc(O)cc2)C(N)=O)NC1=O .
1.0
